test system: UO-31 renal; test: NCI tumour cell line growth inhibition, 48 h; in the data active = GI50 below about 0.43 µM; inactive = the rest
Bench note: report the call from active, inactive

Reference set, count: 5
[[record]]
compound = "CC1c2ccccc2N=C2SC(=S)N3CCN=C3N21 (configuration not stated)"
class_name = "inactive"

[[record]]
compound = "COc1ccc(-c2cnoc2-c2cc(OC)c3c(c2)OCCO3)cc1"
class_name = "active"

[[record]]
compound = "CC(C)[O-].CC(C)[O-].CN(CCN(C)Cc1cc(F)cc(F)c1[O-])Cc1cc(F)cc(F)c1[O-].[Ti+4]"
class_name = "inactive"

[[record]]
compound = "CCNCCNc1cc(-c2ccc(C#N)cc2)c(C#N)c2nc3ccccc3n12"
class_name = "inactive"

[[record]]
compound = "CC(=Nc1ccc(S(N)(=O)=O)cc1)c1c(O)[nH]c2ccccc12"
class_name = "inactive"


[Q] Hey, what did the test say about "O=C1c2ccccc2-c2c1c1c(NCCCO)nc3ccccc3c1n2Cc1ccccc1" ?
[A] inactive

[Q] Could you please tell me the result logged for "N.N.N.N.N.O=S(=O)([O-])S(=O)(=O)[O-].[Co+3]" in this assay?
[A] inactive

Data origin: PubChem BioAssay (NCI)
